Where these numbers come from: patent US11771662B2

- test: Plasma methadone concentrations by liquid chromatography/triple quadrupole mass spectrometry (Example I)
- particulars: dog, in vivo, 1 mg/kg, Plasma methadone concentration, individual dogs, methadone alone 1 mg/kg PO; 24 hr; Dog 1-6
quantity-measured: concentration at 24 h

Query CCC(=O)C(CC(C)N(C)C)(c1ccccc1)c1ccccc1 (racemic) [methadone] yields concentration at 24 h of < 0.5 ng/mL

====

- test: Plasma methadone concentrations by liquid chromatography/triple quadrupole mass spectrometry (Example I)
- particulars: dog, in vivo, 1 mg/kg, Plasma methadone concentration, individual dogs, methadone alone 1 mg/kg PO; 6 hr; Dog 1-6
quantity-measured: concentration at 6 h

Query CCC(=O)C(CC(C)N(C)C)(c1ccccc1)c1ccccc1 (racemic) yields concentration at 6 h of < 0.5 ng/mL
